Tested on: biotinyl-Leu-oxazolone
Experiment: self-aminoacylation, catalytic enhancement (BLO) (fold over background); higher = more active; k-Seq, kA / k0A0; sequences stand for … in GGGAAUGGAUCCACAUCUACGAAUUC…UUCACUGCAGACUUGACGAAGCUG
This sample holds only a part of the variants without activity.
Measurement Kind: self-aminoacylation
Form field (numeric): enter value without unit.

The observed self-aminoacylation for AUGACCCUGGUCAUCUAGUGA [Fam2.1 aminoacylation ribozyme variant] when tested with biotinyl-Leu-oxazolone stands at 8.57

The observed self-aminoacylation for CCGCACUUCAAACAAUCGGUC [Fam1B.1 aminoacylation ribozyme variant] when tested with biotinyl-Leu-oxazolone stands at 3.41

The observed self-aminoacylation for CUUCUUCAAACAAUCGUUCUG [Fam1A.1 aminoacylation ribozyme variant] when tested with biotinyl-Leu-oxazolone stands at 0.65

The observed self-aminoacylation for CUACACUUCAAGCAAUCGGCC [Fam1B.1 aminoacylation ribozyme variant] when tested with biotinyl-Leu-oxazolone stands at 2.41

The observed self-aminoacylation for AAUACCCUGAUCAUCGAGUGA [Fam2.1 aminoacylation ribozyme variant] when tested with biotinyl-Leu-oxazolone stands at 6.22

The observed self-aminoacylation for AAGGUUGCAAAUAGUCGCAAG [Fam3.1 aminoacylation ribozyme variant] when tested with biotinyl-Leu-oxazolone stands at 1.2

The observed self-aminoacylation for AAGUUUGCUAAUUGUCCCAAG [Fam3.1 aminoacylation ribozyme variant] when tested with biotinyl-Leu-oxazolone stands at 0.999

The observed self-aminoacylation for AUUACCCUGGUCAUCGGGUUA [Fam2.1 aminoacylation ribozyme variant] when tested with biotinyl-Leu-oxazolone stands at 42.4

The observed self-aminoacylation for AUUGCCCUGUUCAUCGAGUGA [Fam2.1 aminoacylation ribozyme variant] when tested with biotinyl-Leu-oxazolone stands at 5.81

====

I'd be grateful if you could share measured self-aminoacylation for these entries.
System: biotinyl-Met-oxazolone
Experiment: self-aminoacylation, catalytic enhancement (BMO) (fold over background); higher = more active; k-Seq, kA / k0A0; sequences stand for … in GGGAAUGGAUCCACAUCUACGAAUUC…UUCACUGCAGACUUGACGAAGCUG
Fewer inactive variants are shown than the library holds.
Form field (numeric): enter value without unit.

In plain terms, CCACACUUAAAGCAACCGGUC [Fam1B.1 aminoacylation ribozyme variant] has a documented self-aminoacylation of 1.2

In plain terms, AAGUUUGCUAAUAAUCGCAAA [Fam3.1 aminoacylation ribozyme variant] has a documented self-aminoacylation of 1.14

In plain terms, AUUCACCUAGGUCGUCCGGUG [Fam2.2 aminoacylation ribozyme variant] has a documented self-aminoacylation of 3.34

In plain terms, AUUACCCUGGUCAUCGAAUUA [Fam2.1 aminoacylation ribozyme variant] has a documented self-aminoacylation of 1.5

In plain terms, AUUACCCUAGUCAGCGAGUGA [Fam2.1 aminoacylation ribozyme variant] has a documented self-aminoacylation of 5.1

In plain terms, CCAAGCUUCAAGCAAUCGGUC [Fam1B.1 aminoacylation ribozyme variant] has a documented self-aminoacylation of 1.51

In plain terms, CUCCUUCAAGCAAUCGGUCUG [Fam1A.1 aminoacylation ribozyme variant] has a documented self-aminoacylation of 1.2

In plain terms, CAACUUCAAACAAACGGUCUG [Fam1A.1 aminoacylation ribozyme variant] has a documented self-aminoacylation of 0.945

In plain terms, AUCACUCUGGUCAUCGAGUGA [Fam2.1 aminoacylation ribozyme variant] has a documented self-aminoacylation of 3.12

In plain terms, AAGUUUGCUACUAGUCUCAAG [Fam3.1 aminoacylation ribozyme variant] has a documented self-aminoacylation of 0.914

In plain terms, UUUCACUUAGGUCAUCGGGUG [Fam2.2 aminoacylation ribozyme variant] has a documented self-aminoacylation of 6.17

In plain terms, GUUAACCUGGUCAUCGAGUGA [Fam2.1 aminoacylation ribozyme variant] has a documented self-aminoacylation of 6.75

In plain terms, CUACAUCAACCAAUCGGUCUG [Fam1A.1 aminoacylation ribozyme variant] has a documented self-aminoacylation of 0.748

In plain terms, AUAACCAUGGUCAUCGAGUGA [Fam2.1 aminoacylation ribozyme variant] has a documented self-aminoacylation of 7.91

In plain terms, UUUCACCUAGGUCAUCGGGUA [Fam2.2 aminoacylation ribozyme variant] has a documented self-aminoacylation of 27.4

In plain terms, CCACACUUCAAGCAAUCGGAA [Fam1B.1 aminoacylation ribozyme variant] has a documented self-aminoacylation of 1.42

In plain terms, AAGUUUGCUAAUAGUUGUAAG [Fam3.1 aminoacylation ribozyme variant] has a documented self-aminoacylation of 1.48

In plain terms, CUACUUCAAACAAUCGAUCGG [Fam1A.1 aminoacylation ribozyme variant] has a documented self-aminoacylation of 0.56

In plain terms, AUACACCUUGGUCAUCGGGUG [Fam2.2 aminoacylation ribozyme variant] has a documented self-aminoacylation of 3.63

In plain terms, AUACUUCAAACAAUCGAUCUG [Fam1A.1 aminoacylation ribozyme variant] has a documented self-aminoacylation of 0.535

In plain terms, AUUAACCUGGUCAUCGAGAGA [Fam2.1 aminoacylation ribozyme variant] has a documented self-aminoacylation of 0.749

In plain terms, CCACACUUCAAGCAAUAGGUG [Fam1B.1 aminoacylation ribozyme variant] has a documented self-aminoacylation of 2.17

In plain terms, CGACUUCAAACCAUCGGUCUG [Fam1A.1 aminoacylation ribozyme variant] has a documented self-aminoacylation of 0.807

In plain terms, AUUACCCUGGUAAACGAGUGA [Fam2.1 aminoacylation ribozyme variant] has a documented self-aminoacylation of 19.8

In plain terms, AGGUUUGAUAAUAGUCGCAAG [Fam3.1 aminoacylation ribozyme variant] has a documented self-aminoacylation of 1.57

In plain terms, CAACACUUCAAGCAAUCGGUA [Fam1B.1 aminoacylation ribozyme variant] has a documented self-aminoacylation of 1.15

In plain terms, CUACUUCAAACCAUCGGUCCG [Fam1A.1 aminoacylation ribozyme variant] has a documented self-aminoacylation of 0.868

In plain terms, AUACUUCAAGCAAUCGGUCUG [Fam1A.1 aminoacylation ribozyme variant] has a documented self-aminoacylation of 0.824

In plain terms, AUUCACCUAUGUGAUCGGGUG [Fam2.2 aminoacylation ribozyme variant] has a documented self-aminoacylation of 2.14

In plain terms, AUUCAGCUAGGUCAUGGGGUG [Fam2.2 aminoacylation ribozyme variant] has a documented self-aminoacylation of 3.03

In plain terms, AAGUUUGCUAAUACUCUCAAG [Fam3.1 aminoacylation ribozyme variant] has a documented self-aminoacylation of 0.512

In plain terms, CCACACUUCAAGAAACCGGUC [Fam1B.1 aminoacylation ribozyme variant] has a documented self-aminoacylation of 0.798

In plain terms, CUACUACAAACAAACGGUCUG [Fam1A.1 aminoacylation ribozyme variant] has a documented self-aminoacylation of 0.673

In plain terms, AUUCACCAAGGUUAUCGGGUG [Fam2.2 aminoacylation ribozyme variant] has a documented self-aminoacylation of 7.8

In plain terms, AUUACCCUGUUCAGCGAGUGA [Fam2.1 aminoacylation ribozyme variant] has a documented self-aminoacylation of 5.05

====

System: biotinyl-Phe-oxazolone
Experiment: self-aminoacylation, catalytic enhancement (BFO) (fold over background); higher = more active; k-Seq, kA / k0A0; sequences stand for … in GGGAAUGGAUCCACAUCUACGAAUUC…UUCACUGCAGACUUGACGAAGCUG
Variants at the floor of the assay were thinned out.
Would you please tag the item 1 (yes) when its self-aminoacylation is 4 or above, and 0 (no) when it is below?

IN: Form field: self-aminoacylation at least 4? Entry: GCACACUUCAAGUAAUCGGUC [Fam1B.1 aminoacylation ribozyme variant]
OUT: 1 (yes)

IN: Form field: self-aminoacylation at least 4? Entry: GUUCACCUCGGUCAUCGGGUG [Fam2.2 aminoacylation ribozyme variant]
OUT: 1 (yes)

IN: Form field: self-aminoacylation at least 4? Entry: CAACUUCAAACAAUCGGUCUC [Fam1A.1 aminoacylation ribozyme variant]
OUT: 1 (yes)

IN: Form field: self-aminoacylation at least 4? Entry: CCACACUUCAAUCAAUCCGUC [Fam1B.1 aminoacylation ribozyme variant]
OUT: 0 (no)

IN: Form field: self-aminoacylation at least 4? Entry: AUUCACCUAGGUCAUUGGGCG [Fam2.2 aminoacylation ribozyme variant]
OUT: 1 (yes)

IN: Form field: self-aminoacylation at least 4? Entry: AAGGUUGCUAAUAGUGGCAAG [Fam3.1 aminoacylation ribozyme variant]
OUT: 0 (no)

IN: Form field: self-aminoacylation at least 4? Entry: AAGUUUGCUAAGAAUCGCAAG [Fam3.1 aminoacylation ribozyme variant]
OUT: 0 (no)

IN: Form field: self-aminoacylation at least 4? Entry: AUUCACCUAGGCCAUCGCGUG [Fam2.2 aminoacylation ribozyme variant]
OUT: 1 (yes)

IN: Form field: self-aminoacylation at least 4? Entry: CUACUGCAAAAAAUCGGUCUG [Fam1A.1 aminoacylation ribozyme variant]
OUT: 0 (no)

IN: Form field: self-aminoacylation at least 4? Entry: GUUACCCUGGUCAUCAAGUGA [Fam2.1 aminoacylation ribozyme variant]
OUT: 1 (yes)

IN: Form field: self-aminoacylation at least 4? Entry: UCACAGUUCAAGCAAUCGGUC [Fam1B.1 aminoacylation ribozyme variant]
OUT: 1 (yes)

IN: Form field: self-aminoacylation at least 4? Entry: AUUCACCUAGGUCAAUGGGUG [Fam2.2 aminoacylation ribozyme variant]
OUT: 1 (yes)

IN: Form field: self-aminoacylation at least 4? Entry: AUUCACCUAGUUCAUCGGGAG [Fam2.2 aminoacylation ribozyme variant]
OUT: 0 (no)

IN: Form field: self-aminoacylation at least 4? Entry: ACGUUUGCUAAUAGUUGCAAG [Fam3.1 aminoacylation ribozyme variant]
OUT: 0 (no)

IN: Form field: self-aminoacylation at least 4? Entry: AUACUUCAAGCAAUCGGUCUG [Fam1A.1 aminoacylation ribozyme variant]
OUT: 0 (no)

IN: Form field: self-aminoacylation at least 4? Entry: AAGUUCGCUAAUUGUCGCAAG [Fam3.1 aminoacylation ribozyme variant]
OUT: 0 (no)

IN: Form field: self-aminoacylation at least 4? Entry: CUACUUCAAACAAUCGUUUUG [Fam1A.1 aminoacylation ribozyme variant]
OUT: 0 (no)

IN: Form field: self-aminoacylation at least 4? Entry: CUGCUGCAAACAAUCGGUCUG [Fam1A.1 aminoacylation ribozyme variant]
OUT: 0 (no)
